The reader will find reported pIC50 values listed item by item below.
- TARGET UNDER TEST: OX1 receptor (Homo sapiens)
- Construct: host or cells: CHO-K1
- Sequence (O43613 whole entry): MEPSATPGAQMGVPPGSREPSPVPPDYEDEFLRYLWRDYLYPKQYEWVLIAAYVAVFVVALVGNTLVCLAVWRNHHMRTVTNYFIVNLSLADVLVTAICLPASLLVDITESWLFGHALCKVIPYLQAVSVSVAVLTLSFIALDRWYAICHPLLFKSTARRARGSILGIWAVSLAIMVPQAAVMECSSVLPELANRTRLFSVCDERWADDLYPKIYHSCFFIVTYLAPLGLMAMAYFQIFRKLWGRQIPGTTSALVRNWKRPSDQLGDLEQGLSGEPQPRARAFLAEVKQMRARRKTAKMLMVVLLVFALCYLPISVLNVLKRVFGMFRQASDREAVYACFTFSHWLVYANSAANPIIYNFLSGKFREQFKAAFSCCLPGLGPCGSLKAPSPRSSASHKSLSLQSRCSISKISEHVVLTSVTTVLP
- PROTOCOL TEXT: Orexin target function test (Cisbio HTRF IP-one), CHO-K1-OX1 cells, antagonism of EC80 Orexin A
- Type: cell-based
- REPORTED CONDITIONS: CHO-K1-OX1 cells, IP-one; read-out: hOXIR IC50
- Procedure: Using Cisbio HTRF IP-one kit to detect the changes in IP-one concentration of orexin receptor (OX1/OX2) signaling pathway by microplate reader, and calculating the IC50 value of the compound to evaluate the antagonistic effect of the compound on OX1 and OX2 receptors. The cells were centrifuged at 1000 rpm for 5 minutes and the supernatant was discarded. 3 mL of PBS was added, and gently blown with a pipette to mix. […]
pIC50: −log10 of the molar value.

COMPOUND	pIC50
COc1ncc(C)nc1C1=CC2CN(C(=O)c3c(F)cccc3-n3nccn3)CC2C1 (stereo not drawn)	5.92
Cc1nc(C2=CC3CN(C(=O)c4c(F)cccc4-c4cc[nH]n4)CC3C2)nc(C)c1F (stereo not drawn)	5.89
COc1ccc(C(=O)N2CC3C=C(c4nc(OC)cnc4OC)CC3C2)c(-n2nccn2)c1 (stereo not drawn)	5.54
[2H]C([2H])([2H])Oc1ncc(C)nc1C1=CC2CN(C(=O)c3ccc(OC)cc3-n3nccn3)CC2C1 (stereo not drawn)	5.70
COc1nc(C2=CC3CN(C(=O)c4ccccc4-n4nccn4)CC3C2)nc(C)c1F (stereo not drawn)	5.77
[2H]C([2H])([2H])c1cnc(OC)c(C2=CC3CN(C(=O)c4ccc(OC)cc4-n4nccn4)CC3C2)n1 (stereo not drawn)	5.64
Cc1nc(C2=CC3CN(C(=O)c4c(F)cccc4-n4nccn4)CC3C2)nc(C)c1F (stereo not drawn)	5.95
COc1ccc(C(=O)N2CC3C=C(c4nc(C)cnc4OC)CC3C2)c(-c2ncccn2)c1 (stereo not drawn)	5.49
COc1ccc(C(=O)N2CC3C=C(c4nc(CF)cnc4OC)CC3C2)c(-n2nccn2)c1 (stereo not drawn)	5.74
COc1nc(C2=CC3CN(C(=O)c4c(F)cccc4-n4nccn4)CC3C2)nc(C)c1F (stereo not drawn)	5.91
Cc1nc(C2=CC3CN(C(=O)c4c(F)cccc4-n4nccn4)CC3C2)nc2c1OCC2 (stereo not drawn)	5.61
Cc1nc(C2=CC3CN(C(=O)c4c(F)cccc4-n4nccn4)CC3C2)nc2c1COC2 (stereo not drawn)	5.50
COc1ccc(C(=O)N2CC3C=C(c4nc(C)cnc4OC)CC3C2)c(-n2nccn2)c1 (stereo not drawn)	5.78
Cc1nc(C2=CC3CN(C(=O)c4c(F)cccc4-n4nccn4)CC3C2)nc2c1CCCC2 (stereo not drawn)	5.56
Cc1cnc(C#N)c(C2=CC3CN(C(=O)c4ccc(F)cc4-n4nccn4)CC3C2)n1 (stereo not drawn)	5.78
COc1cc(C(=O)N2CC3C=C(c4nc(C)cnc4OC)CC3C2)c(-n2nccn2)cn1 (stereo not drawn)	5.89
[2H]C([2H])([2H])Oc1ccc(C(=O)N2CC3C=C(c4nc(C)cnc4OC)CC3C2)c(-n2nccn2)c1 (stereo not drawn)	5.50
Cc1nc(C2=CC3CN(C(=O)c4c(F)cccc4-n4nccn4)CC3C2)nc2c1COCC2 (stereo not drawn)	5.73
CCOc1ccc(C(=O)N2CC3C=C(c4nc(C)cnc4OC)CC3C2)c(-n2nccn2)c1 (stereo not drawn)	5.52
COc1ncc(C)nc1C1=CC2CN(C(=O)c3c(F)cccc3-c3ncccn3)CC2C1 (stereo not drawn)	5.68
Cc1nc(C2=CC3CN(C(=O)c4c(F)cccc4-n4nccn4)CC3C2)nc(C)c1CF (stereo not drawn)	5.74
CCc1c(C)nc(C2=CC3CN(C(=O)c4c(F)cccc4-n4nccn4)CC3C2)nc1C (stereo not drawn)	5.71
COc1ncc(C)nc1C1=CC2CN(C(=O)c3ccc(F)cc3-n3cccn3)CC2C1 (stereo not drawn)	5.68
COc1ccc(C(=O)N2C[C@H]3CC(c4nc(Cl)cnc4OC)=C[C@H]3C2)c(-n2nccn2)c1 (relative stereo)	5.59
